These entries and their values trace back to patent US20250367121A1.

Test: clinical
Details: human, in vivo
assay endpoint: Cmax (ng/mL)

{"columns": ["molecule", "assay endpoint", "measured result"],
 "data": [
  ["CN(C)CCc1c[nH]c2ccc(Cn3cncn3)cc12 [Rizatriptan, rizatriptan]", "Cmax", 20.7]
]}
